Biological target: Muscarinic acetylcholine receptor M1 (Homo sapiens, UniProt P11229)
Sequence (P11229 whole entry): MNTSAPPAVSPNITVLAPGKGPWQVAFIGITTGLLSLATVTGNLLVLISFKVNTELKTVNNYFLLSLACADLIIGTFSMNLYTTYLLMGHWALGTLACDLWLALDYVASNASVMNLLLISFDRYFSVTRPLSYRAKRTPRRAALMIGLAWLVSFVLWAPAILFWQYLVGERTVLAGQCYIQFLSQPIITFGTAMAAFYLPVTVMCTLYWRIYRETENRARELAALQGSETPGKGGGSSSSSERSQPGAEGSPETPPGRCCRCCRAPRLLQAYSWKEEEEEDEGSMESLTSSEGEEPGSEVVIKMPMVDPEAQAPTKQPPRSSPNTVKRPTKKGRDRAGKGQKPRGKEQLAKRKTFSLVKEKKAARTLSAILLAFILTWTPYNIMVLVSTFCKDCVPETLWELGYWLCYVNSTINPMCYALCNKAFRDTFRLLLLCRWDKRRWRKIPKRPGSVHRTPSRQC
Label 1.0 when Ki is strictly below 100 nM; at or above that, label 0.0.

[
  {
    "molecule": "C[N+]1(C)CCC[C@H]1[C@H]1C[S+]([O-])[C@@](c2ccccc2)(C2CCCCC2)O1.[I-] (stereo in doubt; (+)-13)",
    "group.label": 1.0
  },
  {
    "molecule": "CN1CCC[C@H]1[C@H]1C[S+]([O-])[C@@](c2ccccc2)(C2CCCCC2)O1 (stereo in doubt; (+)-6)",
    "group.label": 0.0
  },
  {
    "molecule": "CN1CCC[C@H]1[C@H]1C[S+]([O-])[C@](c2ccccc2)(C2CCCCC2)O1 (stereo in doubt; (-)-8)",
    "group.label": 0.0
  },
  {
    "molecule": "C[N+]1(C)CCC[C@@H]1[C@@H]1C[S+]([O-])[C@](c2ccccc2)(C2CCCCC2)O1.[I-] (stereo in doubt; (-)-12)",
    "group.label": 1.0
  },
  {
    "molecule": "CN1CCC[C@H]1[C@H]1C[S+]([O-])C(c2ccccc2)(c2ccccc2)O1 (stereo in doubt; (-)-5)",
    "group.label": 0.0
  },
  {
    "molecule": "C[N+]1(C)CCC[C@@H]1[C@@H]1C[S+]([O-])[C@](c2ccccc2)(C2CCCCC2)O1.[I-] (stereo in doubt; (-)-13)",
    "group.label": 0.0
  }
]

Values compiled from ChEMBL document CHEMBL1150330.
